- method.summary: chemical genetic growth profiling, strain panel (AID 1159580);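 also: tested at 20 µM; growth read once vehicle control cultures reached saturation at 30 °C; 1 = growth at the plate median or of vehicle wells; lower values mean less growth of the strain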
- measurement.parameters: S. cerevisiae deletion strains, growth OD, locus YBR023C, strain chs3
The campaign covered roughly 5,500 compounds. About 2,000 (36%) were called active. Inconclusive results (about 18%) are left out. Rule as the data show it: active = normalized growth mostly below about 0.91 (no sharp cut-off); inconclusive = no clear call, values can overlap the other calls; inactive = mostly above about 0.92. The list shows a part of the results.
The reply should be one of these categories: yes (1) for active, no (0) for inactive

Problem: Kindly provide the recorded test outcome for the following molecule: `COc1cc(/C=C/C(=O)N2CCC=CC2=O)cc(OC)c1OC`
Solution: no (0)

Problem: How about `CC(=O)Oc1cccc2c1C(=O)c1c(OC(C)=O)cc(C(=O)O)cc1C2=O` ?
Solution: no (0)

Problem: Same question for CC(=O)[C@@]1(O)CCC2C3CCC4=CC(=O)CC[C@]4(C)C3CC[C@@]21C (stereo partly specified) please.
Solution: no (0)

Problem: Repeat for the following molecule: `CCOc1cccc(C(=O)c2ccc(O)c(O)c2O)c1`
Solution: yes (1)

Problem: # repeat for `O=C(O)c1cc(=O)c2c(Cl)cc(Cl)cc2[nH]1`
Solution: no (0)

Problem: Do the same for `COc1cc(O)cc(OC)c1OC` please
Solution: no (0)
